Test: Plasma and urine levels of GA metabolites in SD rats orally treated with GA (LC-MS/MS)
Assay type: in vivo
Conditions: female, SD (Sprague-Dawley), rat, plasma, po, 0.2 g/kg, GA 0.20 g/kg orally
metric-name: concentration at 12 h (nM)

[1] CC1(C)[C@@H](OS(=O)(=O)O)CC[C@]2(C)[C@H]3C(=O)C=C4[C@@H]5C[C@@](C)(C(=O)O)CC[C@]5(C)CC[C@@]4(C)[C@]3(C)CC[C@@H]12 [compound 3, 18β-glycyrrhetyl-3-O-sulfate]
[2] CC1(C)[C@@H](O)CC[C@]2(C)[C@H]3C(=O)C=C4[C@@H]5C[C@@](C)(C(=O)O)CC[C@]5(C)CC[C@@]4(C)[C@]3(C)CC[C@@H]12 [GA, glycyrrhetinic acid, reference compound]
Which one would you say has the larger concentration at 12 h value: 1 , or 2 ? Identify your selection by its label.
2
(2: 4700 nM, 1: 300 nM)

====

Experiment: Fecal excretion of GA metabolites in SD rats injected i.v. with GA
Type: in vivo
Conditions: GA 0.2 mg/kg i.v.
metric-name: detection in feces collected for 24 h

Entry CC1(C)[C@@H](OS(=O)(=O)O)CC[C@]2(C)[C@H]3C(=O)C=C4[C@@H]5C[C@@](C)(C(=O)O)C[C@H](O)[C@]5(C)CC[C@@]4(C)[C@]3(C)CC[C@@H]12 [compound 2, 22α-hydroxy-18β-glycyrrhetyl-3-O-sulfate] , detection in feces collected for 24 h reported as found

Noted for CC1(C)[C@@H](OS(=O)(=O)O)CC[C@]2(C)[C@H]3C(=O)C=C4[C@@H]5C[C@@](C)(C(=O)O)CC[C@]5(C)CC[C@@]4(C)[C@]3(C)CC[C@@H]12 [compound 3, 18β-glycyrrhetyl-3-O-sulfate] : its detection in feces collected for 24 h reads found

Lab note: measured detection in feces collected for 24 h of CC1(C)[C@@H](OS(=O)(=O)O)CC[C@]2(C)[C@H]3C(=O)C=C4[C@@H]5C[C@@](C)(C(=O)O[C@@H]6O[C@H](C(=O)O)[C@@H](O)[C@H](O)[C@H]6O)C[C@H](O)[C@]5(C)CC[C@@]4(C)[C@]3(C)CC[C@@H]12 was not found

The value of detection in feces collected for 24 h measured for the compound CC1(C)[C@@H](O[C@@H]2O[C@H](C(=O)O)[C@@H](O)[C@H](O)[C@H]2O)CC[C@]2(C)[C@H]3C(=O)C=C4[C@@H]5C[C@@](C)(C(=O)O)CC[C@]5(C)CC[C@@]4(C)[C@]3(C)CC[C@@H]12 [3MGA, 3-monoglucuronyl glycyrrhetinic acid, reference compound] turned out to be not found

====

Test: Concentrations of GL metabolites in plasma of a patient with pseudoaldosteronism (LC-MS/MS)
Format: in vivo, human
Details: human, plasma, oral; patient, day 14
metric-name: concentration at 14 day (nM)
Numbers only; they are read as nM.

Lab note: measured concentration at 14 day of CC1(C)[C@@H](OS(=O)(=O)O)CC[C@]2(C)[C@H]3C(=O)C=C4[C@@H]5C[C@@](C)(C(=O)O)CC[C@]5(C)CC[C@@]4(C)[C@]3(C)CC[C@@H]12 [compound 3, 18β-glycyrrhetyl-3-O-sulfate] was 57

====

Assay: Concentrations of GL metabolites in plasma of a patient with pseudoaldosteronism (LC-MS/MS)
Type: in vivo, human
Conditions: human, plasma, oral; patient, 5 days after stopping the Kampo formula
metric-name: concentration at 5 day (nM)

[I] CC1(C)[C@@H](O)CC[C@]2(C)[C@H]3C(=O)C=C4[C@@H]5C[C@@](C)(C(=O)O)CC[C@]5(C)CC[C@@]4(C)[C@]3(C)CC[C@@H]12 [GA, glycyrrhetinic acid, reference compound]
[II] CC1(C)[C@@H](OS(=O)(=O)O)CC[C@]2(C)[C@H]3C(=O)C=C4[C@@H]5C[C@@](C)(C(=O)O)CC[C@]5(C)CC[C@@]4(C)[C@]3(C)CC[C@@H]12 [compound 3, 18β-glycyrrhetyl-3-O-sulfate]
Quick one: lower concentration at 5 day, I or II ? API: response body contains the label of the selected item.
I
(I: 650 nM, II: 3600 nM)

====

Experiment: Binding to serum albumin by ultrafiltration of pooled EHBR plasma
Details: female, EHBR (Eisai hyperbilirubinuria rat), plasma, oral, 200 mg/kg
metric-name: concentration at 12 h (µM)

CC1(C)[C@@H](OS(=O)(=O)O)CC[C@]2(C)[C@H]3C(=O)C=C4[C@@H]5C[C@@](C)(C(=O)O)C[C@H](O)[C@]5(C)CC[C@@]4(C)[C@]3(C)CC[C@@H]12 [compound 2, 22α-hydroxy-18β-glycyrrhetyl-3-O-sulfate] yielded concentration at 12 h of 7.8

[1] CC1(C)[C@@H](OS(=O)(=O)O)CC[C@]2(C)[C@H]3C(=O)C=C4[C@@H]5C[C@@](C)(C(=O)O)CC[C@]5(C)CC[C@@]4(C)[C@]3(C)CC[C@@H]12 [compound 3, 18β-glycyrrhetyl-3-O-sulfate]
[2] CC1(C)[C@@H](O)CC[C@]2(C)[C@H]3C(=O)C=C4[C@@H]5C[C@@](C)(C(=O)O)CC[C@]5(C)CC[C@@]4(C)[C@]3(C)CC[C@@H]12 [GA, glycyrrhetinic acid, reference compound]
Which of these two has the smaller recorded concentration at 12 h: 1 or 2 ? // respond with label for picked entry
2
(2: 7 µM, 1: 11.5 µM)
